system_tested: PRMT5/MEP50 (Homo sapiens (Human))
Sequence (O14744 other isoform, or with tags, fused parts or gaps): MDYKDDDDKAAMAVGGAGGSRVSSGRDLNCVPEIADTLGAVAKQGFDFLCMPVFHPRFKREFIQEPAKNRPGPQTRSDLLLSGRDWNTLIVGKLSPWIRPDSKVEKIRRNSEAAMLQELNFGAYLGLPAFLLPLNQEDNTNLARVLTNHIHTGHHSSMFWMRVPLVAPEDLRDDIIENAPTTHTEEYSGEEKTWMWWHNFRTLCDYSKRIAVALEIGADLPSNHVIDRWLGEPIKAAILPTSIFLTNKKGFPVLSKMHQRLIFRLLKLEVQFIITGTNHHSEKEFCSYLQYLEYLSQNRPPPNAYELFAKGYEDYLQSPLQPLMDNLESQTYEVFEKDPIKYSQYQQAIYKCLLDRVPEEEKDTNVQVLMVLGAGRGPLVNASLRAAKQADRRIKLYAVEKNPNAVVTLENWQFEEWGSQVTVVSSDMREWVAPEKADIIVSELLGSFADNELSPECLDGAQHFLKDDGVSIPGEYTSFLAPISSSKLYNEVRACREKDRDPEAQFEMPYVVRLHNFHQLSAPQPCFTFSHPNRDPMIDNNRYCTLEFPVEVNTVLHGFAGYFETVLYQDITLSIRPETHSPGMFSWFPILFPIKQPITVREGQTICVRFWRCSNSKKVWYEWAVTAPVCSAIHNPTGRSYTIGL
Sequence (Q9BQA1 other isoform, or with tags, fused parts or gaps partner): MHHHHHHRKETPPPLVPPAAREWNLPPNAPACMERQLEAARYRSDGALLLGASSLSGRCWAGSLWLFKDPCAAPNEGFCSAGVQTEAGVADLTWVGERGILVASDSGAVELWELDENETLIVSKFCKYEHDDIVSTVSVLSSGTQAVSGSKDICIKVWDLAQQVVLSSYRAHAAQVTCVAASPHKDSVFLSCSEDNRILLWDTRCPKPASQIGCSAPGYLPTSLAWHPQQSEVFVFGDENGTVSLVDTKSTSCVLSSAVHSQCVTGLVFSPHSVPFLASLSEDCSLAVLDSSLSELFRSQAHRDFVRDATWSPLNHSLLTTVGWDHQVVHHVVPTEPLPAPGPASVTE
protocol_details: PRMT5 Biochemical Assay (PRMT5/MEP50 enzyme assay on peptide substrate, 3H-SAM Flashplate)
recorded_conditions: PRMT5/MEP50 4 nM, 3H-SAM 75 nM, peptide 40 nM

compound	IC50
COc1ccc2cccc(OCC(=O)NC[C@H](O)CN3CCc4ccccc4C3)c2n1	101 to 1000 nM
O=C(COC1CCCCC1)NCC(O)CN1CCc2ccccc2C1 (centres unmarked)	101 to 1000 nM
CC(=O)Nc1ccccc1OCC(=O)NCC(O)CN1CCc2ccccc2C1 (centres unmarked)	101 to 1000 nM
O=C(CC1CCCCC1)NC[C@H](O)CN1CCc2ccccc2C1	1000 to 10000 nM
CN(C)c1ncccc1OCC(=O)NCC(O)CN1CCc2ccccc2C1 (centres unmarked)	101 to 1000 nM
